Origin of measurements: the OligoGym collection

system-under-test: DHX35
test-summary: pooled miR-30 sensor sort-seq; sequence = guide strand; further: reference of the scale not given here
condition-label: shRNA
property-measured: sensor-assay potency score (higher = more potent)
The reply should be a number, written without any unit.

Entry TAACACAAAACAGCGCACGAGT has what sensor-assay potency score (higher = more potent)?
-0.967

Try TAGACTGAGGCAACTTGTCAAA next.
-1.05

Try TTCATTCGTAGAGACATGCTTG next.
0.0862

Try TTGAAACTTGACAAGAAGCTTT next.
0.0953

Try TAGATAAAAGATATCCACCGGA next.
-0.104

Try TAAGGGTTGTAAACAACCGTTG next.
-0.768

====

For each entry below, report its sensor-assay potency score (higher = more potent) value.
system-under-test: GHSR
test-summary: pooled miR-30 sensor sort-seq; sequence = guide strand
condition-label: shRNA
The reply should be a number, written without any unit.

Entry TTGAACCCCGGCTCTTCGCTGG has what sensor-assay potency score (higher = more potent)?
-0.129

Try TTGGACATGATGTTGTACAGAA next.
0.099

Try TTGCTTGTGGTTCTGGTCCCTG next.
-0.711

Try TGGAAAATAAATATCGCCCTAC next.
-0.395

Try TTTCACGGTTTGCTTGTGGTTC next.
-0.265

Try AAGTCTGAACACTGCCACCCGG next.
-1.26

Try TTGGAAAATAAATATCGCCCTA next.
-0.35

====

For each entry below, report its sensor-assay potency score (higher = more potent) value.
system-under-test: SYCP2L
test-summary: pooled miR-30 sensor sort-seq; sequence = guide strand
condition-label: shRNA
The reply should be a number, written without any unit.

Entry TTGGTCACCAAGTCTGTTGTTT has what sensor-assay potency score (higher = more potent)?
-0.185

Try TTATTGATCTGTCAAGACGGTA next.
-0.997

Try TTCTTTGTAGCTGATAATCATG next.
-1.28

Try TTCATGACTTCTTTGTAGCTGA next.
0.227

Try AATATCTTTATCTTCTCCGTTT next.
-0.529

Try TTCATCACCGCTTCCTTCGGAA next.
-0.0578

Try TAGGTTTTTCTTCATCTTCTGA next.
-0.679

Try TTGATTGTTGTGACTTAGCAAA next.
-1.27

====

system-under-test: HERC3
test-summary: pooled miR-30 sensor sort-seq; sequence = guide strand
condition-label: shRNA
property-measured: sensor-assay potency score (higher = more potent)
The reply should be a number, written without any unit.

Entry TACATTGAGTAACTTCTTGTAG has what sensor-assay potency score (higher = more potent)?
0.402

Try ATAATATCTGAACAACACCATT next.
-1.67

Try TAACTTCTCAAATAACACCCTA next.
-0.57

Try TAGCTTTCTCGGCAGATCGTGA next.
-0.772

Try TTCAGCTTTTGTATTAACCTGG next.
0.299

Try TTGAACTATATGCACACACATA next.
-1.08

Try TATCTGAACAACACCATTGATT next.
-0.697

====

system-under-test: NUDT17
test-summary: pooled miR-30 sensor sort-seq; sequence = guide strand
condition-label: shRNA
For each entry below, report its sensor-assay potency score (higher = more potent) value.
The reply should be a number, written without any unit.

Give recorded sensor-assay potency score (higher = more potent) with NUDT17 for the following sequence: AGCAAGACAGTCTTGTCGCTGG
-0.353

Try TTGAGGGCAAACTTGGTTCCAG next.
-0.0646

Try TTCCACTGCAAGGACAGAGGGT next.
-0.741

Try TTCTCGAAGCCCTCCGTCCAGC next.
-1.17

Try ATACAGAACAATGTGATGGTAT next.
0.6

Try TAAGCTGCACTTTTACACGGTG next.
-0.247

Try TCTCTGTCCCATCCTCTGCGGC next.
-1.35

Try TTTGGGTTTGGTTGGATCCGGG next.
-0.403
